Listed below: IC50 values for each entry.
target.entity: CYP11B1(cortisol) (Homo sapiens)
Construct: Thus, the NCI-H295R cells have CYP11 B1 (steroid 11 β-hydroxylase)
Sequence (P15538 25-503): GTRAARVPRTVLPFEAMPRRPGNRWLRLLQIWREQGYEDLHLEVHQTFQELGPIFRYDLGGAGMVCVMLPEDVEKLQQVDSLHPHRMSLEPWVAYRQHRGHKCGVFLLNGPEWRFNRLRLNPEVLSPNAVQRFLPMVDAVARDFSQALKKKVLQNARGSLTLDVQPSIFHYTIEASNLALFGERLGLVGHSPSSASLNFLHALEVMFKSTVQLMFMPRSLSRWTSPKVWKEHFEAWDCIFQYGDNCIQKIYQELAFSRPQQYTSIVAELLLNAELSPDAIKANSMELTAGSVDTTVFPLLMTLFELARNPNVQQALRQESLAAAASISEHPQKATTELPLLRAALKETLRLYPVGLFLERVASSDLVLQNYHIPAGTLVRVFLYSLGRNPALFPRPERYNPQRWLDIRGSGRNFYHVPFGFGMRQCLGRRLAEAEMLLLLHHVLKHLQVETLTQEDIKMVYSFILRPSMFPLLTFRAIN
procedure.details: Inhibition of cortisol production in NCI-H295R cells
condition.set: inhibitory activity on cortisol production, read-out: Cortisol (cell)
Description: The in vitro inhibitory activities for CYP11B1 can be determined by the following assay. […] The excretion of aldosterone, cortisol, corticosterone and estradiol/estrone into the culture medium can be detected and quantified by commercially available, specific monoclonal antibodies in radioimmunoassays in accordance with the manufacturers instructions. […]
Counter-ions that a name gives are not always drawn.
Just the number please, in µM, no unit attached.

• CC(O)c1c(F)cncc1-c1ccc(C#N)c(Cl)c1 (single isomer, unassigned) [Example 16 (enantiomer-2)] = 9.42

Input: Find the measured IC50 of CC(O)c1ccncc1-c1ccc(Cl)c(Cl)c1 (stereo not drawn) and report it.
Output: 0.672

Input: Name the recorded IC50 of the compound listed here: "Cn1c(-c2cnccc2CO)nc2ccc(Cl)cc21"
Output: 12.6

Input: Answer with the recorded IC50 of N#Cc1ccc(-c2cnccc2C2CCO2)cc1Cl (single isomer, unassigned) [Example 28 (enantiomer-1)] only.
Output: 0.783

Input: Please look at this compound and report its IC50: CC(O)c1c(F)cncc1-c1ccc2cc(C#N)ccc2c1 (single isomer, unassigned) [5 (enantiomer-1)]
Output: 0.367

Input: State, in one line, measured IC50 of "CC(C)(O)c1c(F)cncc1-c1ccc(C#N)c(Cl)c1"
Output: 15

Input: Note IC50 for the compound shown: CC(O)c1c(F)cncc1-c1cc2cc(Cl)c(F)cc2o1 (single isomer, unassigned) [Example 13d (enantiomer-2)]
Output: 1.07

Input: Tell us which IC50 value is on record for CC(C)OCC(O)c1c(F)cncc1-c1ccc(C#N)c(Cl)c1 (stereo not drawn) [Example 30, hydrochloride]
Output: 4.24

Input: Return reported IC50. Input compound: COc1cc(-c2cnccc2C(C)O)ccc1C#N (single isomer, unassigned) [Example 14 (enantiomer-1)]
Output: 3.39

====

target.entity: CYP11B2 (aldosterone) (Homo sapiens, UniProt P19099)
Sequence (P19099 25-503): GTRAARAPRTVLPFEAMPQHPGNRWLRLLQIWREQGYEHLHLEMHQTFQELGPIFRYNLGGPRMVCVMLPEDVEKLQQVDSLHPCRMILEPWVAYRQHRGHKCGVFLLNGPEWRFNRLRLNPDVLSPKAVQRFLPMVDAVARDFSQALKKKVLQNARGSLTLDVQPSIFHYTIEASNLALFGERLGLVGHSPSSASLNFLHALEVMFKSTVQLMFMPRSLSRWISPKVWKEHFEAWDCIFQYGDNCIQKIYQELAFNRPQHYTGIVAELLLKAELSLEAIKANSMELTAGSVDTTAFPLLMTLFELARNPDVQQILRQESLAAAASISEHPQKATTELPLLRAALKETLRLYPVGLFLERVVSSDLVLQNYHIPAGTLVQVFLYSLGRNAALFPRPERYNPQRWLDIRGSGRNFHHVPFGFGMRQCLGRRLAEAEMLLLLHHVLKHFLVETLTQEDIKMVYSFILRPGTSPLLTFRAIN
procedure.details: Inhibition of aldosterone production in NCI-H295R cells (Ang II stimulated, SPA)
condition.set: inhibitory activity on aldosterone production, read-out: Aldosterone (cell)
Structures can show the parent of a compound that is named as a salt.
Listed molecules paired with reported pIC50
# pIC50 is unitless: minus log10 of the molar concentration; print number only

• CC(O)c1ccncc1-c1ccc(Cl)c(Cl)c1 (stereo not shown) [Example 46] = 7.12
• CC(C)OCC(O)c1c(F)cncc1-c1ccc(C#N)c(Cl)c1 (stereo not shown) [Example 30, hydrochloride] = 6.84
• CC(C)(O)c1c(F)cncc1-c1ccc(C#N)c(Cl)c1 [Example 32] = 6.81
• COc1cc(-c2cnccc2C(C)O)ccc1C#N (single isomer, unassigned) [Example 14 (enantiomer-1)] = 6.88
• N#Cc1ccc(-c2cnccc2C2CCO2)cc1Cl (single isomer, unassigned) [Example 28 (enantiomer-1)] = 7.63
• CC(O)c1c(F)cncc1-c1ccc(C#N)c(Cl)c1 (single isomer, unassigned) [Example 16 (enantiomer-2)] = 6.97
• CC(O)c1c(F)cncc1-c1ccc2cc(C#N)ccc2c1 (single isomer, unassigned) [5 (enantiomer-1)] = 7.38
• CC(O)c1c(F)cncc1-c1cc2cc(Cl)c(F)cc2o1 (single isomer, unassigned) [Example 13d (enantiomer-2)] = 8.60

Input: Supply pIC50 value. Item: Cn1c(-c2cnccc2CO)nc2ccc(Cl)cc21 [Example 37]
Output: 6.92

Input: Quote pIC50 reported for CC1OC(=O)c2cncc(-c3ccc(C#N)c(Cl)c3)c21 (stereo not shown) [Example 24] please.
Output: 6.58
